The reported measurements were obtained from patent US20250163167A1.

testTarget: T1, human IL-10 receptor (hIL-10R alpha and beta chains) on HEK-Blue IL-10 reporter cells (human, UniProt Q13651 22-578; Q08334 20-325)
T1 sequence 1: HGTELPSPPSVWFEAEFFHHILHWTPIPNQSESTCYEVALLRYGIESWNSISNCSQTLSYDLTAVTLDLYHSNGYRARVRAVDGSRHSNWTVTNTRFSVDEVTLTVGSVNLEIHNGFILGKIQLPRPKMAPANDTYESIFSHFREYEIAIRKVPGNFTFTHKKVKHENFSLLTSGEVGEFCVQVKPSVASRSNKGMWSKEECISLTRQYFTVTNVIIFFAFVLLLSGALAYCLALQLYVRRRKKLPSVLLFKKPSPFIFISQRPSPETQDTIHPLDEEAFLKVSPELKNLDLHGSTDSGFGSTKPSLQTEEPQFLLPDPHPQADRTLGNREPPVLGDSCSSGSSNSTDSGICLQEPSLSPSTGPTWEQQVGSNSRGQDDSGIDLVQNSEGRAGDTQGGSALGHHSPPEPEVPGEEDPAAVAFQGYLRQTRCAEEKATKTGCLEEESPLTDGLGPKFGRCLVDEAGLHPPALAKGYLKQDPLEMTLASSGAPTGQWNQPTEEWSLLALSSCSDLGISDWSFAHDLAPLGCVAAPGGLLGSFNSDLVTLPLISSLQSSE
T1 sequence 2: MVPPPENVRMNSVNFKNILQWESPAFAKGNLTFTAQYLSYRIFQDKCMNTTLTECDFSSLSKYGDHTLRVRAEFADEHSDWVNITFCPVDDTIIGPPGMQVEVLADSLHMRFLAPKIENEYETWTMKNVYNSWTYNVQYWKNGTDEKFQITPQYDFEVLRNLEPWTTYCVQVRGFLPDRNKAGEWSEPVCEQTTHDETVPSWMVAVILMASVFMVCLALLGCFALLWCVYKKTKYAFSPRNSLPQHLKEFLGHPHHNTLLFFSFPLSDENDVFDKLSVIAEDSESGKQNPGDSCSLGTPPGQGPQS
measurementDescription: cell-based or functional assay
Kindly return TRUE if reported Abs 630 (100 nM) is no lower than 0.4 Abs 630; return FALSE if it is lower.

{"binder": "IL10R binding molecule of SEQ ID NO: 295 (bispecific antibody) QVQLQESGGGSVQAGGSLRLSCGASGYTYSSYCMGWFRQVPGKEREGVAVIDSDGSTSYADSVKGRFTISKDNGKNTLYLQMNSLKPEDTAMYYCAADLGHYRPPCGVLYLGMDYWGKGTQVTVSSGGGSQVQLQESGGGSVEAGGSLRLSCAASGYTHSSYCMGWFRQAPGKEREGVAAIDVDGSTTYADSVKGRFTISKDNAKNTLYLQMNSLKPEDTGMYYCAAEFADCSSNYFLPPGAVRYWGQGTQVTVSSASHHHHHH", "cat": "TRUE"}
{"binder": "IL10R binding molecule of SEQ ID NO: 344 (bispecific antibody) QVQLQESGGGSVQAGGSLRLSCAASGYSYSSYCMGWFRQAPGKEREGVATIDSDGMTRYADSVKGRFTISKDNAKNTLYLQMNSLKPEDTAMYYCAAPLYDCDSGAVGRNPPYWGQGTQVTVSSGGGSQVQLQESGGGSVQAGGSLRLSCTVSGYTYSSNCMGWFRQAPGKEREGVATIYTGGGNTYYADSVKGRFTISQDNAKNTVYLQMNNLKPEDTAMYYCAAEPLSRVYGGSCPTPTFDYWGQGTQVTVSSASHHHHHH", "cat": "TRUE"}
{"binder": "IL10R binding molecule of SEQ ID NO: 299 (bispecific antibody) QVQLQESGGGSVQAGGSLRLSCAASGYSNCSYDMTWYRQAPGKEREFVSAIHSDGSTRYADSVKGRFFISQDNAKNTVYLQMNSLKPEDTAMYYCKTDPLHCRAHGGSWYSVRANYWGQGTQVTVSSGGGSQVQLQESGGGSVQAGGSLRLSCAASGYTYSSYCMGWFRQAPGKEREGVAHIDSDGSTSYADSVKGRFTISKDNAKNTLYLQMNSLKPEDTAMYYCAADPIPGPGYCDGGPNKYWGQGTQVTVSSASHHHHHH", "cat": "FALSE"}
{"binder": "IL10R binding molecule of SEQ ID NO: 307 (bispecific antibody) QVQLQESGGGSVQAGGSLRLSCAASGYTYSSGCMGWFRQAPGKEREAVAAINSDGSTSYADSVKGRFTISKDNAKNTLYLQMNSLKPEDTAMYYCAAEPYCSGGYPRWSVAEFGYWGQGTQVTVSSGGGSQVQLQESGGGSVQAGGSLRLSCAASGYTYSMYCMGWFRQAPGKEREGVAQINSDGSTSYADSVKGRFTISKDNAKNTLYLQMNSLKPEDTAMYYCAADSRVYGGSWYERLCGPYTYEYNYWGQGTQVTVSSASHHHHHH", "cat": "FALSE"}
{"binder": "IL10R binding molecule of SEQ ID NO: 261 (bispecific antibody) QVQLQESGGGSVQAGGSLRLSCAASRYLYSIDYMAWFRQSPGKEREPVAVIYTASGATFYPDSVKGRFTISQDNAKMTVYLQMNSLKSEDTAMYYCAAVRKTDSYLFDAQSFTYWGQGTQVTVSSGGGSQVQLQESGGGSVQAGGSLRLSCAASGYSYSSYCMGWFRQAPGKEREGVATIDSDGMTRYADSVKGRFTISKDNAKNTLYLQMNSLKPEDTAMYYCAAPLYDCDSGAVGRNPPYWGQGTQVTVSSASHHHHHH", "cat": "FALSE"}

State whether the measured Abs 630 (100 nM) reaches 0.4 Abs 630, counting equality as reaching it, for IL10R binding molecule of SEQ ID NO: 324 (bispecific antibody) QVQLQESGGGSVQAGGSLRLSCAASRYTYNSYCMGWFRQAPGKEREGVATIDSDGMTRYADSVKGRFTISKDNAKNTLYLQMNSLKPEDTAMYYCAADADCTIAAMTTNPLGQGTQVTVSSGGGSQVQLQESGGGSVQAGGSLRLSCGASGYTYSSYCMGWFRQVPGKEREGVAVIDSDGSTSYADSVKGRFTISKDNGKNTLYLQMNSLKPEDTAMYYCAADLGHYRPPCGVLYLGMDYWGKGTQVTVSSASHHHHHH TRUE

Would you kindly repeat that for IL10R binding molecule of SEQ ID NO: 325 (bispecific antibody) QVQLQESGGGSVQAGGSLRLSCAASRYTYNSYCMGWFRQAPGKEREGVATIDSDGMTRYADSVKGRFTISKDNAKNTLYLQMNSLKPEDTAMYYCAADADCTIAAMTTNPLGQGTQVTVSSGGGSQVQLQESGGGSVQAGGSLRLSCAASGYSNCSYDMTWYRQAPGKEREFVSAIHSDGSTRYADSVKGRFFISQDNAKNTVYLQMNSLKPEDTAMYYCKTDPLHCRAHGGSWYSVRANYWGQGTQVTVSSASHHHHHH ? TRUE

Input IL10R binding molecule of SEQ ID NO: 298 (bispecific antibody) QVQLQESGGGSVQAGGSLRLSCAASGYSNCSYDMTWYRQAPGKEREFVSAIHSDGSTRYADSVKGRFFISQDNAKNTVYLQMNSLKPEDTAMYYCKTDPLHCRAHGGSWYSVRANYWGQGTQVTVSSGGGSQVQLQESGGGSVQAGGSLRLSCAASGYTYSSGCMGWFRQAPGKEREAVAAINSDGSTSYADSVKGRFTISKDNAKNTLYLQMNSLKPEDTAMYYCAAEPYCSGGYPRWSVAEFGYWGQGTQVTVSSASHHHHHH FALSE
